Assay: amyloid nucleation score (Sup35N fusion, yeast selection) (log enrichment); library NNK2; higher = more nucleation; inactive = no reads after selection;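 also: zero at mode of non-aggregating sequences after 7 days selection at 30°C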
The following ranges of amyloid nucleation score define the classes used here: low group: < -0.3; middle group: ≥ -0.3 and < 0.3; high group: ≥ 0.3

# CONSTRUCT SEQUENCE, CATEGORY LABEL
rows = [
    ("RRLSGSFLRDYVNPWIQRSS", "middle group"),
    ("SELKMWYTDMVSTSKLDCIL", "middle group"),
    ("FIICTEWPSDLLNWSSVANW", "low group"),
    ("PDFSDFITHLIGFRSMGTGG", "low group"),
    ("LLFIIMRDLLYPTLEDTFLT", "high group"),
    ("MLIDSWSVAIYICLLLIQVQ", "high group"),
    ("GILGQGDYYLRN", "low group"),
    ("GNTGSGSDSKLYLAMP", "middle group"),
    ("IAVRDALVSVQLLPPENVGV", "high group"),
    ("TSLYRVSKM", "low group"),
    ("PPRKTIELCSTQP", "high group"),
    ("NWVRINYWLRAIIKSELRVG", "middle group"),
    ("GTMPNGCKS", "high group"),
    ("NMFSLWVYKLAMFWIY", "low group"),
    ("QYWQYWSWIGCVCLLCGWRF", "high group"),
    ("RRPKHYMAVMSESVGLQCRL", "middle group"),
]

###

Experiment: amyloid nucleation score (Sup35N fusion, yeast selection) (log enrichment); library NNK3; higher = more nucleation; inactive = no reads after selection
OUTCOME MEASURE: amyloid nucleation score

# SUBSTANCE, OUTCOME MEASURE, OBSERVED
records = [
    ("IFGCFSCSVSMFIDNAVMSL", "amyloid nucleation score", 2.55),
    ("GVYSVSLLVLWMSMRASIAC", "amyloid nucleation score", "inactive"),
    ("ILFSISSVMF", "amyloid nucleation score", 0.605),
    ("FYYRESRQLRLWVYIGSIVY", "amyloid nucleation score", "inactive"),
    ("GLCRNCF", "amyloid nucleation score", "inactive"),
    ("WWVRQNVRWVLACVDFSTFS", "amyloid nucleation score", "inactive"),
    ("EGDYECGNTWQNGGSTSEDP", "amyloid nucleation score", "inactive"),
    ("PVLQIIRLADRLWLDIG", "amyloid nucleation score", "inactive"),
    ("YASYFSWEDCHG", "amyloid nucleation score", "inactive"),
    ("SFGTLQKVK", "amyloid nucleation score", "inactive"),
    ("NDQKIPLARYLG", "amyloid nucleation score", "inactive"),
    ("LPHPALKDFRISVRQLIWVR", "amyloid nucleation score", 1.04),
    ("NDCISHVSSCRMYDETKVCL", "amyloid nucleation score", "inactive"),
    ("DMGRCCSRKLRRRTPYVKGR", "amyloid nucleation score", "inactive"),
    ("FFVIRLNPTSLNCVFSWYLL", "amyloid nucleation score", "inactive"),
    ("FYPKLPTLSVQDVGHRKPST", "amyloid nucleation score", "inactive"),
    ("HISGYNDYMFDP", "amyloid nucleation score", "inactive"),
]

###

Assay: amyloid nucleation score (Sup35N fusion, yeast selection) (log enrichment); library NNK3; higher = more nucleation; inactive = no reads after selection

# SUBSTANCE, amyloid nucleation score
data = [
    ("HFFLLMLSYSYYDCVFRYKC", "inactive"),
    ("LDFKIPRN", "inactive"),
    ("NIIDKW", -0.357),
    ("EVVLFKYVVL", 0.848),
    ("GGRLSLKESWKAGFSIAERF", "inactive"),
    ("EHYFSTSIVGCGFFIWWCWG", "inactive"),
    ("NHDIDALTQTQPTDNSYL", "inactive"),
    ("STTGWSMYYWSIRADREVTY", "inactive"),
    ("YGPQGVGLMGSLIAVISFIR", 1.12),
]
